The measurements presented in this section are drawn from patent US20240270821A1.

- measured-target: hGcgR (Homo sapiens)
- Sequence (P47871 26-477): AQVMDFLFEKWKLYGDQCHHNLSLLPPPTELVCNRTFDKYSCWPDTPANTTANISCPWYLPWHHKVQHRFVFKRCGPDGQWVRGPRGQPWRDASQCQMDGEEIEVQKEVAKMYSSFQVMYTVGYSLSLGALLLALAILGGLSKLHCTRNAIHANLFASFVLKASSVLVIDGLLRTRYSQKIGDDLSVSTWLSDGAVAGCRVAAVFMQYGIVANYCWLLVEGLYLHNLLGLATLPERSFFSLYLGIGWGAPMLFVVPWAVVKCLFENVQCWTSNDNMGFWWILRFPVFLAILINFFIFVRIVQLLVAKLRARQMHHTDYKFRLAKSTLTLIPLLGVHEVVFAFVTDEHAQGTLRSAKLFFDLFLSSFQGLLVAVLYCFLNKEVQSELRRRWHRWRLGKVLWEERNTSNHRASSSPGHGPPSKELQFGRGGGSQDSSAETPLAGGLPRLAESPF
- protocol-text: Functional cAMP activation in the presence of 0.1% casein (no HSA);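 further: intracellular cAMP rise after 30 min at 37 °C, read by HTRF against a cAMP standard curve, scaled from buffer only (0%) to maximal control ligand response (100%)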
- Assay type: cell-based
- settings: in the presence of 0.1% casein (no HSA); geometric mean; read-out: Relative cAMP EC50, hGcgR
pEC50: −log10 of the molar value. Starred links: 1 amine or outer side, 2 acyl side, 3 side chain; linkers in the order of their positions; H or OH if unused. Non-standard residues stand in square brackets, D forms with d. Groups on a side chain read outwards from the residue. No end group written: not given here. *: point of attachment. C20 diacid = O=C(O)CCCCCCCCCCCCCCCCCCC(=O)*; C18 diacid = O=C(O)CCCCCCCCCCCCCCCCC(=O)*; γGlu = O=C(O)[C@H](CCC(=O)[*:2])N[*:1]; αMeL = CC(C)C[C@](C)(N)C(=O)O; Orn = NCCC[C@H](N)C(=O)O; AEEA = NCCOCCOCC(=O)O; Aib = CC(C)(N)C(=O)O
Below is a list of entries, each paired with its recorded pEC50 value.

| substance | measured-target | pEC50 |
| --- | --- | --- |
| H-Y[Aib]QGTFTSDFSK[αMeL]LDKK([AEEA-γGlu-C20 diacid])AQ[Aib]AFIEYLLEGGPSSGAPPP[γGlu]EG-NH2 [Example 52] | hGcgR (Homo sapiens) | 8.23 |
| Y[Aib]QGTFTSDFS[Orn][αMeL]LDKK([AEEA-AEEA-γGlu-C18 diacid])AQ[Aib]AFIEYLLE[dA]GPSSGHPPPSGH-NH2 [Example 255] | hGcgR (Homo sapiens) | 8.26 |
| H-Y[Aib]QGTFTSDFS[Orn][αMeL]LDKK([AEEA-AEEA-γGlu-C18 diacid])AQ[Aib]AFIEWLLEGGHSSGAPPPSGE-NH2 [Example 169] | hGcgR (Homo sapiens) | 7.93 |
